Every entry's value here was drawn from patent US8653075B2.

Target chain: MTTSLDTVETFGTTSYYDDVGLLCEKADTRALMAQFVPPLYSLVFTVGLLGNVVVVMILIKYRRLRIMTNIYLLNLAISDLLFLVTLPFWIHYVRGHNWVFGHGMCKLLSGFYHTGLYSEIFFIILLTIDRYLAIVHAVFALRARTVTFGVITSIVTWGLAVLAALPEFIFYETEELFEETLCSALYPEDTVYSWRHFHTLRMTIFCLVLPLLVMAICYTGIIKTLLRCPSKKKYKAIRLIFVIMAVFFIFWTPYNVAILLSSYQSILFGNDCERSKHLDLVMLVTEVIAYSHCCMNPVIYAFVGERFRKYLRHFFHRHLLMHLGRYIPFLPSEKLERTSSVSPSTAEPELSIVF
Entries and their pKi
pKi is a log-scale quantity: -log10 of the concentration expressed in molar.

Completed entries (count: 5):
                                   molecule  value_measured
0  Cc1cc(CN2CCC(N3C(=O)CC[C@@H]3C(=O)Nc3cc(C(=O)N4CCOCC4)ccn3)CC2)ccc1Cl            7.72
1  Cc1cc(CN2CCC(N3C(=O)N(C)C[C@H]3C(=O)Nc3cc(C(C)(C)C)no3)CC2)ccc1Cl            7.39
2  Cc1cc(CN2CCC(N3C(=O)CC[C@@H]3C(=O)Nc3cccc(C(=O)N(C)C)c3)CC2)ccc1Cl            8.22
3  Cc1cc(CN2CCC(N3C(=O)CC[C@@H]3C(=O)Nc3cccc(C(=O)N4CCC4)c3)CC2)ccc1Cl            7.92
4  CCNS(=O)(=O)c1cccc(NC(=O)[C@H]2CCC(=O)N2C2CC3CCC(C2)N3Cc2ccc(Cl)c(C)c2)c1 (stereo partly shown)            7.26

get_value(item= `CNC(=O)c1cccc(NC(=O)[C@H]2CCC(=O)N2C2CCN(Cc3ccc(Br)cc3)CC2)c1` , readout=pKi) returns 6.94

get_value(item= `CNC(=O)c1cccc(NC(=O)[C@H]2CN(C)C(=O)N2C2CCN(Cc3ccc(Cl)c(C)c3)CC2)c1` , readout=pKi) returns 7.07
